# Tested on: PfAP2-G AP2 domain (GST-tagged)
# Method: gcPBM binding intensity (ln(normalized median fluorescence intensity)); higher = stronger DNA binding
The full ranking holds about 25,000 sequences; the median of “ln(normalized median fluorescence intensity)” is about 10, and the highest 2% start at about 12. This is one part of a sample in which the highest values are shown more often than they occur.
Property label: gcPBM binding intensity (ln)
// no unit string in output, number only

Recorded gcPBM binding intensity (ln), per entry:
{"Residue string": "AGAAAATTAAAAAGAACACACAAATATATATATAAT [CACACA_site5896]", "Tested target": "PfAP2-G AP2 domain (GST-tagged)", "Property label": "gcPBM binding intensity (ln)", "Measured value": 10}
{"Residue string": "CTCAATATATTTGATTTACACACTTACAATGTATAT [CACACA_site8982]", "Tested target": "PfAP2-G AP2 domain (GST-tagged)", "Property label": "gcPBM binding intensity (ln)", "Measured value": 10}
{"Residue string": "TTCTATATATATATAGACAAACGATAAAATAAAAAA [GTGCAC_negctrl_site142]", "Tested target": "PfAP2-G AP2 domain (GST-tagged)", "Property label": "gcPBM binding intensity (ln)", "Measured value": 10.1}
{"Residue string": "CTTTAAACCCTGAACACACACAAATACACCCAAAAA [CACACA_site4297]", "Tested target": "PfAP2-G AP2 domain (GST-tagged)", "Property label": "gcPBM binding intensity (ln)", "Measured value": 10.7}
{"Residue string": "CACAAACAAAAACACACACACACACCGACAAAAATG [CACACA_site5362]", "Tested target": "PfAP2-G AP2 domain (GST-tagged)", "Property label": "gcPBM binding intensity (ln)", "Measured value": 10.5}
{"Residue string": "ATTTTTTTTTTTATTTTCTTTGAGATTATCTTAATT [CACACA_negctrl_site1209]", "Tested target": "PfAP2-G AP2 domain (GST-tagged)", "Property label": "gcPBM binding intensity (ln)", "Measured value": 9.78}
{"Residue string": "ATATGTATATATAAAAGTACGCGTAAAAAAAAAAAA [XGTACX_site5377]", "Tested target": "PfAP2-G AP2 domain (GST-tagged)", "Property label": "gcPBM binding intensity (ln)", "Measured value": 11.7}
{"Residue string": "TTATGTTCTTTAAAACCACACACCCCCCAACCCCCC [CACACA_site8742]", "Tested target": "PfAP2-G AP2 domain (GST-tagged)", "Property label": "gcPBM binding intensity (ln)", "Measured value": 11.6}
{"Residue string": "TTTCTTTTTAAATAGGTGCATATTTTTATAAATATA", "Tested target": "PfAP2-G AP2 domain (GST-tagged)", "Property label": "gcPBM binding intensity (ln)", "Measured value": 10.1}
{"Residue string": "TAAAAGGATGCATATACACACATATAGATTTATATA [CACACA_site7336]", "Tested target": "PfAP2-G AP2 domain (GST-tagged)", "Property label": "gcPBM binding intensity (ln)", "Measured value": 9.91}

For reference, reported gcPBM binding intensity (ln) for TCCTCGCGTAATACTTTTCAAATAAAAAAAATAAAA [TGCATGCA_negctrl_site403] stands at 10.5

Per the records, this sequence ( AAAACAAACATTACACGTACAAAACAAGTTATAGAC [XGTACX_site6320] ) has gcPBM binding intensity (ln) equal to 11.4

// sample AAATATAAAAGTATATGTACATATATATATATATAT [XGTACX_site7446] , its gcPBM binding intensity (ln) was 11.2

Data point: TATACACATATATAAAGTACATATATGTGTAAAAAA [XGTACX_site8582] ; gcPBM binding intensity (ln) = 11

gcPBM binding intensity (ln) for ATGTTCTTTAAAACCACACACCCCCCAACCCCCCTC [CACACA_site2373] is 11.7

// field: gcPBM binding intensity (ln); key: TGAGTTCAACAAAGACGTACAAAACCAAAAATATAA [XGTACX_site8931] ; value = 11.6

GET /value?item= TTTCAAACAAAAAGACGTACACTGAAGTTATCCGTC [XGTACX_site8824] &field=gcPBM binding intensity (ln) returns 11.8

Sample TTTTTTTTTTTTTTTTTTTTTTTATGTTCTTAAAAA [GTGCAC_negctrl_site62] ; gcPBM binding intensity (ln) observed: 9.56

get_value(item= GATACACCAAATAACTGTACGCACGTGTAATATTAA [XGTACX_site3441] , readout=gcPBM binding intensity (ln)) returns 11.6

###

# System: PfAP2-G AP2 domain (GST-tagged)
# Method: gcPBM binding intensity (ln(normalized median fluorescence intensity)); higher = stronger DNA binding
Over roughly 25,000 sequences, “ln(normalized median fluorescence intensity)” has its median near 10; the highest 2% begin near 12. The entries come from a sample that favours the highest values as a whole.
Property label: gcPBM binding intensity (ln)
Returns: the value as a bare number; no unit string appended.

{"Residue string": "ATAATTATAAAATAAACACACATATATATTTATATG [CACACA_site440]", "Measured value": 9.98}

Form: sequence = AAGGTATAATATATTTGTACATATACATTTTTGAAT [XGTACX_site6493] ; gcPBM binding intensity (ln) = 10.9

// gcPBM binding intensity (ln) value for TTTGTCATTTTATTATGTACTCAGCATATAGGGGGG [XGTACX_site505] : 11.7

The recorded gcPBM binding intensity (ln) for entry GCTTAATACAGAATAACACACAAAATAAATAAATAA [CACACA_site4041] equals 10

For ATATAAAAAAATTGCACACATAAATATATACATATA [CACACA_site1218] the sequence record lists gcPBM binding intensity (ln) as 10.1

Summary for this sequence, AATACTAAAAAGTGTACACATACATAAAAAATTGCA [CACACA_site5620] : gcPBM binding intensity (ln) is 11.6

// gcPBM binding intensity (ln) value for TTGTGTCATATATTTTGTAATCAAAATAATTTTATT [TGCATGCA_negctrl_site307] : 10.1

Item: ATTTTTATTAAAATATGTACGTATTTTACTCATACA [XGTACX_site5330] | gcPBM binding intensity (ln): 11.6

Record summary for TTAAATACTAAAAAGTGTACACATACATAAAAAATT [XGTACX_site6261] : reported gcPBM binding intensity (ln) = 11.7

Reported gcPBM binding intensity (ln) of AACCATAAAAAGTGTACACATATAAAAAATATGGAA [CACACA_site4199] : 11.7

Record summary for CGCATGTATTTTGTGTGTACTAATTATAATCAACTT [XGTACX_site4709] : reported gcPBM binding intensity (ln) = 11.4

Kindly note the recorded gcPBM binding intensity (ln) for TAAAATATACAAATTTGTACATATATATGTATGTAT [XGTACX_site1127] , which is 10.9

Looking up ATAATCACAAATAATTGTACATTTTGTTATATATAT [XGTACX_site7704] , I found its gcPBM binding intensity (ln) recorded as 10.8

In plain terms, TTTATACAAATATGTACACACTAAATATATATTATG [CACACA_site4413] has a documented gcPBM binding intensity (ln) of 11.5

###

# System: PfAP2-G AP2 domain (GST-tagged)
# Method: gcPBM binding intensity (ln(normalized median fluorescence intensity)); higher = stronger DNA binding
Over roughly 25,000 sequences, “ln(normalized median fluorescence intensity)” has its median near 10; the highest 2% begin near 12. Shown is part of a subset that was picked to be rich in the highest values.
The entries below are paired with their reported gcPBM binding intensity (ln).
Form: value (number only, do not type unit).

As a guide, the following entries are already answered.
{"Residue string": "TTATATTTAGTATATGCACACTTTATGTTTGTTATT [CACACA_site5163]", "Measured value": 9.96}
{"Residue string": "TAAAATTTGTACATAGTGCAATTTTTTTTTTTTTTT", "Measured value": 10.7}
{"Residue string": "TATGTGAATATAATCACACACAATACGGAAAGAGAC [CACACA_site7311]", "Measured value": 10.7}
{"Residue string": "TCTTGAAAAAGAATCAATCGGTCGACAAAAAAAAAA [CACACA_negctrl_site1099]", "Measured value": 10.4}

gcPBM binding intensity (ln) for PfAP2-G AP2 domain (GST-tagged) with input CATATTAAGATGTGTACACATTTTTATTTTTTTTTT [CACACA_site4425] equals 11.6
